tested on: T-47D; assay: relative IC50 (midpoint of fitted logistic curve, plateau may be below 50% inhibition; CellTiter-Glo viability); higher = less potent; conditions: 4-OH-tamoxifen in medium 1 µM; 72 h

>  <compound>
COc1cccc2c1C(=O)c1c(O)c3c(c(O)c1C2=O)C[C@@](O)(C(C)=O)C[C@@H]3O[C@H]1C[C@H](N)[C@H](O)[C@H](C)O1

>  <operator>
=

>  <relative IC50 [nM]>
350

$$$$
>  <compound>
CC1(C)NC(=O)N(c2ccc([N+](=O)[O-])c(C(F)(F)F)c2)C1=O [Nilutamide]

>  <operator>
>

>  <relative IC50 [nM]>
10000

$$$$
>  <compound>
Cc1c2oc3c(C)ccc(C(=O)N[C@@H]4C(=O)N[C@H](C(C)C)C(=O)N5CCC[C@H]5C(=O)N(C)CC(=O)N(C)[C@@H](C(C)C)C(=O)O[C@@H]4C)c3nc-2c(C(=O)N[C@@H]2C(=O)N[C@H](C(C)C)C(=O)N3CCC[C@H]3C(=O)N(C)CC(=O)N(C)[C@@H](C(C)C)C(=O)O[C@@H]2C)c(N)c1=O

>  <operator>
=

>  <relative IC50 [nM]>
8.51

$$$$
>  <compound>
NC1(c2ccc(-c3nc4ccn5c(=O)[nH]nc5c4cc3-c3ccccc3)cc2)CCC1

>  <operator>
=

>  <relative IC50 [nM]>
177

$$$$
>  <compound>
C[C@@]1(C(=O)Nc2ccc(F)nc2)CCCN1c1nc(Nc2cc(C3CC3)n[nH]2)c2cccn2n1

>  <operator>
=

>  <relative IC50 [nM]>
210

$$$$
>  <compound>
C[C@@H]1CCN(C(=O)CC#N)C[C@@H]1N(C)c1ncnc2[nH]ccc12

>  <operator>
>

>  <relative IC50 [nM]>
5000

$$$$
